The reported numbers originate from paper PMC6409085.

Molecular target: SfurOBP11 (Sogatella furcifera)
Sequence (V5T6E3 entry or part of it): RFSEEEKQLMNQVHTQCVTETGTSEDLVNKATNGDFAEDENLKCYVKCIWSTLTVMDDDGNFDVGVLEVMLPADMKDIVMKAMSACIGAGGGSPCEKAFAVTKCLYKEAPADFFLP
Test: biochemical
Assay type: binding
Details: ligand concentration 6, replicate 2
Experimental: Thirty-six rice odorants ([He et al., 2014]; [Wang et al., 2017]) and 1-N-phenyl-naphthylamine (1-NPN) were purchased from Sigma-Aldrich (St Louis, MO, USA). […] Fluorescence competitive binding assays were performed on Tecan Spark 10M (Tecan Group Ltd., Männedorf, Switzerland) with the F96 Black ELIAS Plate (Sangon) ([Khuhro et al., 2017]; [Liu et al., 2017]). The solutions were excited at 337 nm and emission spectra were recorded between 390 and 490 nm. […]
Fluorescence intensity, fluorescence competitive binding assay, OBP11 for assorted molecules
property.measured: Fluorescence intensity, fluorescence competitive binding assay, OBP11

>  <molecule>
Cc1cc(C(C)(C)C)c(O)c(C(C)(C)C)c1

>  <measurement.target>
SfurOBP11 (Sogatella furcifera)

>  <quantitative.result>
20607

$$$$
>  <molecule>
O=C(c1ccccc1)c1ccccc1

>  <measurement.target>
SfurOBP11 (Sogatella furcifera)

>  <quantitative.result>
20401

$$$$
>  <molecule>
C/C(=C\CO)CCC[C@H](C)CCC[C@H](C)CCCC(C)C

>  <measurement.target>
SfurOBP11 (Sogatella furcifera)

>  <quantitative.result>
18409

$$$$
>  <molecule>
CC/C=C\CCO [(Z)-3-hexenol]

>  <measurement.target>
SfurOBP11 (Sogatella furcifera)

>  <quantitative.result>
20794

$$$$
>  <molecule>
C=C1CC/C=C(\C)CC[C@@H]2[C@@H]1CC2(C)C

>  <measurement.target>
SfurOBP11 (Sogatella furcifera)

>  <quantitative.result>
25770

$$$$
>  <molecule>
CCC/C=C/CO [(E)-2-hexenol]

>  <measurement.target>
SfurOBP11 (Sogatella furcifera)

>  <quantitative.result>
28910

$$$$
>  <molecule>
CC(=O)/C=C/C1=C(C)CCCC1(C)C

>  <measurement.target>
SfurOBP11 (Sogatella furcifera)

>  <quantitative.result>
26403

$$$$
>  <molecule>
CCCCCCCCCCCCCC

>  <measurement.target>
SfurOBP11 (Sogatella furcifera)

>  <quantitative.result>
29047

$$$$
>  <molecule>
CCCCCCCC

>  <measurement.target>
SfurOBP11 (Sogatella furcifera)

>  <quantitative.result>
29054

$$$$
>  <molecule>
CCCCCC=O

>  <measurement.target>
SfurOBP11 (Sogatella furcifera)

>  <quantitative.result>
25791

$$$$
>  <molecule>
C=CC(C)(O)CCC=C(C)CCC=C(C)C (mixture of isomers)

>  <measurement.target>
SfurOBP11 (Sogatella furcifera)

>  <quantitative.result>
24386

$$$$

###

Biological target: SfurOBP11 (Sogatella furcifera)
Assay: biochemical
Assay type: binding
Conditions: ligand concentration 6, replicate 3
property.measured: Fluorescence intensity, fluorescence competitive binding assay, OBP11

>  <compound>
CCCCCCCCCCCCCCCCCCC

>  <quantitative.result>
35504

$$$$
>  <compound>
CCCCCCCCCCCCCCCC

>  <quantitative.result>
20737

$$$$
>  <compound>
O=C(c1ccccc1)c1ccccc1

>  <quantitative.result>
19317

$$$$
>  <compound>
C=CC(C)(O)CCC=C(C)CCC=C(C)C (mixture of isomers)

>  <quantitative.result>
25974

$$$$
>  <compound>
Cc1ccc(C(C)C)cc1

>  <quantitative.result>
29854

$$$$
>  <compound>
CC/C=C\CCO [(Z)-3-hexenol]

>  <quantitative.result>
21118

$$$$
>  <compound>
CCCCCC(C)=O

>  <quantitative.result>
25781

$$$$
>  <compound>
CCCCCCCCCCCCC=O

>  <quantitative.result>
26650

$$$$
>  <compound>
CCCCCCCCCCCCCC

>  <quantitative.result>
31220

$$$$
>  <compound>
CCCCCCCCCCCCCCCC(=O)OC [MH(methyl hexadecanoate)]

>  <quantitative.result>
37537

$$$$
>  <compound>
CCCCCCC=CCO

>  <quantitative.result>
36155

$$$$
>  <compound>
C=C1CC/C=C(\C)CC[C@@H]2[C@@H]1CC2(C)C

>  <quantitative.result>
26267

$$$$

###

Fluorescence intensity, fluorescence competitive binding assay, OBP11 for assorted compounds
Target: SfurOBP11 (Sogatella furcifera)
Experiment: biochemical
Format: binding
Settings: ligand concentration 10, replicate 1
property.measured: Fluorescence intensity, fluorescence competitive binding assay, OBP11

>  <compound>
CCCCCCCC

>  <quantitative.result>
27525

$$$$
>  <compound>
OC1CCCCC1

>  <quantitative.result>
22885

$$$$
>  <compound>
CCCCCCCCCCCCCCCC

>  <quantitative.result>
20121

$$$$
>  <compound>
C/C(=C\CO)CCC[C@H](C)CCC[C@H](C)CCCC(C)C

>  <quantitative.result>
18889

$$$$
>  <compound>
C[C@@H]1CC[C@H]2C(C)(C)[C@H]3C[C@@]12CC[C@@]3(C)O

>  <quantitative.result>
34631

$$$$
>  <compound>
Cc1ccc(C(C)C)cc1

>  <quantitative.result>
25875

$$$$
>  <compound>
CC(=O)/C=C/C1=C(C)CCCC1(C)C

>  <quantitative.result>
21871

$$$$
>  <compound>
C=C/C(C)=C/C/C=C(\C)CCC=C(C)C

>  <quantitative.result>
34517

$$$$
>  <compound>
CCCCCCCCCCCCC=O

>  <quantitative.result>
24577

$$$$
>  <compound>
CCCCCCCCCCCCCCCCCCC

>  <quantitative.result>
39470

$$$$
>  <compound>
C=CC(C)(O)CCC=C(C)C (stereo not drawn)

>  <quantitative.result>
32152

$$$$
>  <compound>
CCCCCCCCCCCCCC

>  <quantitative.result>
27323

$$$$

###

Molecular target: UniProt:V5T6E3
Test: biochemical
Type: binding
Settings: ligand concentration 16, replicate 1
Procedure: Thirty-six rice odorants ([He et al., 2014]; [Wang et al., 2017]) and 1-N-phenyl-naphthylamine (1-NPN) were purchased from Sigma-Aldrich (St Louis, MO, USA). […] Fluorescence competitive binding assays were performed on Tecan Spark 10M (Tecan Group Ltd., Männedorf, Switzerland) with the F96 Black ELIAS Plate (Sangon) ([Khuhro et al., 2017]; [Liu et al., 2017]). The solutions were excited at 337 nm and emission spectra were recorded between 390 and 490 nm. […]
Response field label takes label 1 when Fluorescence intensity, fluorescence competitive binding assay, OBP11 is strictly below 20000 and label 0 in all other cases.

>  <molecule>
C=C(C)C1CC=C(C)CC1 (single isomer, unassigned; (+)) [(+)-limonene]

>  <group>
label 1

$$$$
>  <molecule>
C=C1CC/C=C(\C)CC[C@@H]2[C@@H]1CC2(C)C

>  <group>
label 0

$$$$
>  <molecule>
Cc1cc(C(C)(C)C)c(O)c(C(C)(C)C)c1

>  <group>
label 1

$$$$
>  <molecule>
CC/C=C\CCO [(Z)-3-hexenol]

>  <group>
label 1

$$$$
>  <molecule>
CCCCCCC=CCO

>  <group>
label 0

$$$$
>  <molecule>
CCCCCCCC=O

>  <group>
label 0

$$$$
>  <molecule>
CC(=O)c1ccccc1

>  <group>
label 1

$$$$
>  <molecule>
CC1=CC[C@@H](C(C)(C)O)CC1

>  <group>
label 1

$$$$
>  <molecule>
CCCCCCCCCCCCCCCC

>  <group>
label 0

$$$$
>  <molecule>
Cc1ccc(C(C)C)cc1

>  <group>
label 1

$$$$
>  <molecule>
CCCCCCCCCCCCCCCCCC

>  <group>
label 0

$$$$
>  <molecule>
CCCCCCCCC=O

>  <group>
label 0

$$$$
>  <molecule>
C/C(=C\CO)CCC[C@H](C)CCC[C@H](C)CCCC(C)C

>  <group>
label 0

$$$$
>  <molecule>
C=CC(C)(O)CCC=C(C)CCC=C(C)C (mixture of isomers)

>  <group>
label 1

$$$$
>  <molecule>
CC(C)COC(=O)CCCCC(=O)OCC(C)C [DA(diisobutyl adipate)]

>  <group>
label 1

$$$$
>  <molecule>
COC(=O)c1ccccc1

>  <group>
label 1

$$$$
>  <molecule>
CCCCCCCCCCOCCCCCCCCCC

>  <group>
label 0

$$$$
>  <molecule>
C[C@@H]1CC[C@H]2C(C)(C)[C@H]3C[C@@]12CC[C@@]3(C)O

>  <group>
label 0

$$$$
>  <molecule>
O=Cc1ccccc1

>  <group>
label 1

$$$$
>  <molecule>
CCCCCCCCCCCCCCCC(=O)OC [MH(methyl hexadecanoate)]

>  <group>
label 0

$$$$
>  <molecule>
CCCCCCCCCCCCCC

>  <group>
label 0

$$$$
>  <molecule>
CCCCCCCCCCC

>  <group>
label 0

$$$$
>  <molecule>
CC(=O)/C=C/C1=C(C)CCCC1(C)C

>  <group>
label 1

$$$$
